# TEST TARGET: Kappa-type opioid receptor (Homo sapiens, UniProt P41145)
# Sequence (P41145 whole entry): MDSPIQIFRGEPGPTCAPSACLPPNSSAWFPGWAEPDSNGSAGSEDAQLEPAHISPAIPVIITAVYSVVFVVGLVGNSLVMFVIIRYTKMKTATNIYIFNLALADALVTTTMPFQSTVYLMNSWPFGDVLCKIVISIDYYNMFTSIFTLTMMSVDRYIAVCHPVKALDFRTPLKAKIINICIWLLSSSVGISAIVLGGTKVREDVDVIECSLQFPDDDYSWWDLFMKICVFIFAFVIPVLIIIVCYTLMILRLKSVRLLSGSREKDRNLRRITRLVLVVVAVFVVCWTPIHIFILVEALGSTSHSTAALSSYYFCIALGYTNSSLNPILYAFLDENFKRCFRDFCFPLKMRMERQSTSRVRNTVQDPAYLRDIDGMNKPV
# TEST SUMMARY: Agonist activity at human KOPR expressed in CHO cells assessed as enhancement of [35S]GTPgammaS binding
MEASURED ENDPOINT: EC50 (µM)
Please give a number only; it is taken to be in µM.

The recorded EC50 for entry COC(=O)[C@@H]1C[C@H](OC(C)=O)C(=O)[C@H]2[C@@]1(C)CC[C@H]1C(=O)O[C@H](C(=O)O)C[C@]21C equals 0.167

###

# TEST TARGET: Mu-type opioid receptor (Rattus norvegicus)
# Sequence (P33535 whole entry): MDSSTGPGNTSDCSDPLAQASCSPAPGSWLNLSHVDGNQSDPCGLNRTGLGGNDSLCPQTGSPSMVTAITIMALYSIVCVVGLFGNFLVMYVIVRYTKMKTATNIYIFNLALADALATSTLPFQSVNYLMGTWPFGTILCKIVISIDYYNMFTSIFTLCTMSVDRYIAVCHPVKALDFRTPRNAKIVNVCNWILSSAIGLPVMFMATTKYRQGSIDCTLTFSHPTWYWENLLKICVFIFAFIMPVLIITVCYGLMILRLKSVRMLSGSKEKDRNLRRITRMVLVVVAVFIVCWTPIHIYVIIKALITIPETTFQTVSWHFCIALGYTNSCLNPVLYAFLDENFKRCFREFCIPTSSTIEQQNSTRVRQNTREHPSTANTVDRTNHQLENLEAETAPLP
MEASURED ENDPOINT: Ki

> print(dat)
                            smiles.notation                               test.target  reported.result
1  COC(=O)[C@@H]1C[C@H](OC(C)=O)C(=O)[C@H]2[C@@]1(C)CC[C@H]1C(=O)O[C@H](C(=O)c3cnccn3)C[C@]21C  Mu-type opioid receptor (Rattus norvegicus)        > 1000 nM
2  CCOC[C@@H]1C[C@]2(C)[C@H]3C(=O)[C@@H](OC(C)=O)C[C@@H](C(=O)OC)[C@]3(C)CC[C@H]2C(=O)O1  Mu-type opioid receptor (Rattus norvegicus)        > 1000 nM
3  COC(=O)[C@@H]1C[C@H](OC(C)=O)C(=O)[C@H]2[C@@]1(C)CC[C@H]1C(=O)O[C@H](C(=O)O)C[C@]21C  Mu-type opioid receptor (Rattus norvegicus)        > 1000 nM
4  COC(=O)[C@@H]1C[C@H](OC(C)=O)C(=O)[C@H]2[C@@]1(C)CC[C@H]1C(=O)O[C@H](C(=O)c3cccs3)C[C@]21C  Mu-type opioid receptor (Rattus norvegicus)        > 1000 nM

Turning to the following compound.
Param item: COC(=O)[C@@H]1C[C@H](OC(C)=O)C(=O)[C@H]2[C@@]1(C)CC[C@H]1C(=O)O[C@H]([C@H](O)c3ccco3)C[C@]21C ; param system: Mu-type opioid receptor (Rattus norvegicus); output Ki: > 1000 nM

###

Let's look at some compounds and their measured Ki.
# TEST TARGET: Delta-type opioid receptor (Mus musculus)
# Sequence (P32300 whole entry): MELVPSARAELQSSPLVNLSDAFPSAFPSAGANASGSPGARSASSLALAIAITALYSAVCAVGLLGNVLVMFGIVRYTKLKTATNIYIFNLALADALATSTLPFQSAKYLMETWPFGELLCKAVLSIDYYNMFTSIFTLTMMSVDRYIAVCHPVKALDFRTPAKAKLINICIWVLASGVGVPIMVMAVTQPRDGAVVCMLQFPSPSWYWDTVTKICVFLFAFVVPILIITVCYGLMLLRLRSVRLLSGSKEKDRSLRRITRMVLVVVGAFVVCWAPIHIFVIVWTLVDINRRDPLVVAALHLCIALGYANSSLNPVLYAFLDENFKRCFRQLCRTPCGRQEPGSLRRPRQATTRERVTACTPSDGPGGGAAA
# TEST SUMMARY: Binding affinity to mouse DOPR expressed in CHO cells

Examples with their reported Ki follow.
> print(dat)
                            smiles.notation                               test.target  reported.result
1  COC(=O)[C@@H]1C[C@H](OC(C)=O)C(=O)[C@H]2[C@@]1(C)CC[C@H]1C(=O)O[C@H](C(=O)O)C[C@]21C  Delta-type opioid receptor (Mus musculus)        > 1000 nM
2  CCOC[C@@H]1C[C@]2(C)[C@H]3C(=O)[C@@H](OC(C)=O)C[C@@H](C(=O)OC)[C@]3(C)CC[C@H]2C(=O)O1  Delta-type opioid receptor (Mus musculus)        > 1000 nM
3  COC(=O)[C@@H]1C[C@H](OC(C)=O)C(=O)[C@H]2[C@@]1(C)CC[C@H]1C(=O)O[C@H](C(=O)c3cccs3)C[C@]21C  Delta-type opioid receptor (Mus musculus)        > 1000 nM
4  COC(=O)[C@@H]1C[C@H](OC(C)=O)C(=O)[C@H]2[C@@]1(C)CC[C@H]1C(=O)O[C@H](C(=O)OC(C)C)C[C@]21C  Delta-type opioid receptor (Mus musculus)        > 1000 nM

Tested on Delta-type opioid receptor (Mus musculus), the item COC[C@@H]1C[C@]2(C)[C@H]3C(=O)[C@@H](OC(C)=O)C[C@@H](C(=O)OC)[C@]3(C)CC[C@H]2C(=O)O1 showed Ki equal to > 1000 nM

The compound COC(=O)[C@@H]1C[C@]2(C)[C@H]3C(=O)[C@@H](OC(C)=O)C[C@@H](C(=O)OC)[C@]3(C)CC[C@H]2C(=O)O1 on Delta-type opioid receptor (Mus musculus): Ki was > 1000 nM

Field Ki (system: Delta-type opioid receptor (Mus musculus)) for entry COC(=O)[C@@H]1C[C@H](OC(C)=O)C(=O)[C@H]2[C@@]1(C)CC[C@H]1C(=O)O[C@H](c3ccoc3Br)C[C@]21C = > 1000 nM

Kindly note: Delta-type opioid receptor (Mus musculus), C=Cc1occc1[C@@H]1C[C@]2(C)[C@H]3C(=O)[C@@H](OC(C)=O)C[C@@H](C(=O)OC)[C@]3(C)CC[C@H]2C(=O)O1 , Ki value reported: > 1000 nM

Tested system Delta-type opioid receptor (Mus musculus); Ki recorded for COC(=O)[C@@H]1C[C@H](OC(C)=O)C(=O)[C@H]2[C@@]1(C)CC[C@H]1C(=O)O[C@H](C(=O)c3cnccn3)C[C@]21C was > 1000 nM

Readout Ki for COC(=O)[C@@H]1C[C@H](OC(C)=O)C(=O)[C@H]2[C@@]1(C)CC[C@H]1C(=O)O[C@H](COC(C)=O)C[C@]21C , test system Delta-type opioid receptor (Mus musculus), was > 1000 nM

Observed Ki, Delta-type opioid receptor (Mus musculus), COC(=O)[C@@H]1C[C@H](OC(C)=O)C(=O)[C@H]2[C@@]1(C)CC[C@H]1C(=O)O[C@H]([C@H](O)c3ccco3)C[C@]21C : > 1000 nM

Considering CCOC(=O)[C@@H]1C[C@]2(C)[C@H]3C(=O)[C@@H](OC(C)=O)C[C@@H](C(=O)OC)[C@]3(C)CC[C@H]2C(=O)O1 , its Ki with Delta-type opioid receptor (Mus musculus) was recorded as > 1000 nM
